Potency values, listed per item
molecular target: Glucocorticoid receptor (Homo sapiens) (UniProt P04150); experiment: GR-GFP Redistribution (AID 450); settings: U2OS GR-GFP nuclear translocation, laser cytometry, 2 h; also: potency is read from the fitted curve at half-maximal effect
Sequence (P04150 whole entry, looked up): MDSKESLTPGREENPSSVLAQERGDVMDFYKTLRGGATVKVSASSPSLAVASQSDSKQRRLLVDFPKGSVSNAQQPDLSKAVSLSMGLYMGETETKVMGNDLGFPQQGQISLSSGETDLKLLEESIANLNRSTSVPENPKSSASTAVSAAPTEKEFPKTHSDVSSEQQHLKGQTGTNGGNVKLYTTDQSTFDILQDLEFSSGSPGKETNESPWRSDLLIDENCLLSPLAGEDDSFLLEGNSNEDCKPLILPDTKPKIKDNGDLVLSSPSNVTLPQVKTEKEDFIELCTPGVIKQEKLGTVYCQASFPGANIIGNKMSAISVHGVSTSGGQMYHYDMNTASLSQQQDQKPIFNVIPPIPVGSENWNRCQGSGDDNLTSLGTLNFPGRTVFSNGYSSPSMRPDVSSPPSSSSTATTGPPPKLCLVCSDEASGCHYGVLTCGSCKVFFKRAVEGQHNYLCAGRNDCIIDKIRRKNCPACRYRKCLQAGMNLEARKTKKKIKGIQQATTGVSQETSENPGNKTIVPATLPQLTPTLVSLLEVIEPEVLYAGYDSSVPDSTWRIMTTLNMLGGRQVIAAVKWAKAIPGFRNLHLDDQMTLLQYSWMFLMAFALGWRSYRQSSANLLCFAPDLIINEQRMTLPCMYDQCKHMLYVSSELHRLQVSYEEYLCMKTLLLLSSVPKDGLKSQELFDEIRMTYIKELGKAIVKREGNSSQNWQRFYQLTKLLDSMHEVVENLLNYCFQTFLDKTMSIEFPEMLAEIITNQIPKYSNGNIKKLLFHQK
The source made the active and inactive calls.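 The calls were made as follows: active = compounds whose dose series gives a full or clear partial fitted curve of increased nuclear translocation; inconclusive = weak partial curve or effect only at the top dose; inactive = no dose-dependent translocation response.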

A selection of reference data follows.
CC(=O)O[C@H]1C[C@@]2(C)[C@H](C[C@@H](O)[C@H]3[C@@]4(C)CC[C@@H](O)[C@@H](C)[C@H]4CC[C@@]32C)C1=C(CCC=C(C)C)C(=O)O: > 20.6 µM (inactive)
CC(=O)N[C@H]1[C@@H](O[C@@H](C)C(=O)O)[C@H](O)[C@H](CO)O[C@@H]1O: > 20.6 µM (inactive)
CC(=O)N(C[C@@H](C)C(=O)O)c1c(I)cc(I)c(N)c1I: > 20.6 µM (inactive)
NC(=O)c1ncn([C@H]2O[C@@H](CO)[C@@H](O)[C@@H]2O)n1: > 20.6 µM (inactive)
COc1ccc(CNc2ncncc2-c2ccccc2CN(C)C)c(OC)c1: > 46 µM (inactive)

Just so you know, measured Potency for C[C@@H]1O[C@H](O[C@@H]2\C=C/C=C\C=C/C=C\C[C@H](C)OC(=O)/C=C\[C@H]3O[C@@H]3C[C@H](O)C[C@]3(O)C[C@@H](O)[C@@H](C(=O)O)[C@H](C2)O3)[C@@H](O)[C@H](N)[C@@H]1O (stereo in doubt) came out at > 20.6 µM (inactive)

Just so you know, measured Potency for CC[C@H](C(=O)[C@H](C)[C@H](O)[C@H](C)CCc1ccc(C)c(O)c1C(=O)O)[C@H]1O[C@](CC)([C@@H]2CC[C@@](O)(CC)[C@H](C)O2)C[C@H]1C came out at > 20.6 µM (inactive)

Just so you know, measured Potency for O=C1O[C@@H]([C@@H](O)CO)[C@@H](O)[C@H]1O came out at > 20.6 µM (inactive)

----------
test system: PAD; assay: qHTS profiling for inhibitors of Plasmodium falciparum proliferation (AID 504749);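 also: 0% = DMSO vehicle and full inhibition = artemisinin control; nearly all actives have a fitted effect of over 60% in size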; conditions: P. falciparum in erythrocytes, SYBR Green DNA, 72 h; series mostly up to 12.8 µM
Records with an inconclusive call do not appear. Active and inactive are the calls of the source. The call rests on the fitted dose curve; in most records, active means well fitted inhibition curve with a large enough effect; inconclusive means small, poorly fitted or top-dose-only effect; inactive means flat fitted curve, though single readings scatter.
// classify into active, inactive

So what was the verdict on COC(=O)C1=C(C)NC(C)=C(C(=O)OC(C)C)[C@H]1c1cccc2nonc12 in this test?
inactive

So what was the verdict on O=C1O[C@@H]([C@@H](O)CO)[C@@H](O)[C@H]1O in this test?
inactive

----------
experiment: qHTS profiling for inhibitors of Plasmodium falciparum proliferation (AID 504749);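 also: 0% = DMSO vehicle and full inhibition = artemisinin control; nearly all actives have a fitted effect of over 60% in size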; conditions: P. falciparum in erythrocytes, SYBR Green DNA, 72 h; at 12.8 µM (top of the series); parasite line B
Results filed as inconclusive are left out.
activity, negative = inhibition values, listed per item
Field: numeric (%). Do not append units.

A selection of reference data follows.
NC(=O)N[C@H]1NC(=O)NC1=O: 16.7
CCOC(=O)O[C@@H](C)OC(=O)[C@@H]1N2C(=O)[C@@H](NC(=O)[C@@H](N)c3ccccc3)[C@H]2SC1(C)C: 6.1
NC[C@@H]1O[C@@H](O[C@H]2[C@H](O)[C@H](O[C@@H]3O[C@H](CO)[C@@H](O)[C@H](N)[C@@H]3O)[C@@H](N)C[C@H]2N)[C@H](N)C[C@@H]1O: 18.7
COc1ccc(C[C@@](C)(N)C(=O)O)cc1OC: -23.5
CCCCC[C@H](O)/C=C\[C@@H]1[C@H](O)CC(=O)[C@@H]1CCCCCCC(=O)O: 1.76

Next item in the queue.
Just so you know, measured activity, negative = inhibition for CC(C)(C)NC(=O)[C@@H]1CC[C@@H]2[C@@H]3CC[C@@H]4NC(=O)C=C[C@@]4(C)[C@H]3CC[C@]21C came out at -2.48
